FYI, the data here is from PubChem BioAssay (NCI).

System: NCI-H226 lung
PROTOCOL: NCI-60 one-dose screen, 48 h
EXPERIMENTAL_CONDITIONS: 10 µM unless noted
The panel holds about 83,000 compounds, 20% with a hit somewhere; the sample as a whole holds those more often. Calls of active or inactive are those of the source. How the source made its calls: active means growth percent below 10; inactive means the rest.
Outcome codes: active, inactive

COMPOUND	QUALITATIVE_LABEL
COc1ccc2c3c([nH]c2c1)C(=O)c1nc(C)ccc1C3=O	inactive
O=C1N[C@@H]2NC(=[N+]3CCOCC3)N[C@@H]2N1	inactive
CN(C)CCNC(=O)c1cccc(-c2cnc3ccc(-c4ccc5c(c4)OCO5)nn23)c1	inactive
O=C(/C=C/c1cn(-c2ccccc2)nc1-c1ccc([N+](=O)[O-])cc1)c1ccc(Cl)cc1	inactive
Fc1cc(F)cc(C(c2c[nH]c3ccccc23)c2c[nH]c3ccccc23)c1	inactive
O=C1Nc2ccc(I)cc2C1=O	inactive
Oc1c(Cl)cc(Cl)c2ccc(Cn3cc(-c4ccc(C(F)(F)F)cc4)nn3)nc12	inactive
CCCCC(=O)c1ccco1	inactive
COc1cc(-c2nc(SCCC(C)C)nc(Nc3ccccc3Cl)c2C#N)cc(OC)c1OC	inactive
C=C1CC[C@@H]2[C@](C)(COC(C)=O)[C@H](OC(C)=O)CC[C@@]2(C)[C@@H]1CC(Sc1ccccc1)C1=CCOC1=O (stereo partly drawn)	active
COc1ccc(C(c2cc(OC)c(OC)c(OC)c2)N2CCN(c3ccccc3)CC2)cc1 (stereo not drawn)	inactive
CC1(C)CC2=C3C=C[C@@H]4[C@@]5(C)CCC(=O)C(C)(C)[C@@H]5CC[C@@]4(C)[C@]3(C)CC[C@@]2(C(=O)O)CC1=O	inactive
O=C(Cn1cc(CN2C(=O)c3ccccc3S2(=O)=O)nn1)Nc1nc2ccccc2s1	inactive
C=C(C)[C@@H]1CC[C@]2(C(=O)O)CC[C@]3(C)[C@H](CC[C@@H]4[C@@]5(C)C[C@@H](Cc6cn(CCO[C@@H]7O[C@H](COC(C)=O)[C@H](OC(C)=O)[C@H](OC(C)=O)[C@H]7OC(C)=O)nn6)[C@H](O)C(C)(C)[C@@H]5CC[C@]43C)[C@@H]12	inactive
Cn1c(=O)c2c(nc(NC3=NS(=O)(=O)c4ccccc43)n2CC(=O)N2CCc3ccccc32)n(C)c1=O	inactive
Cc1nc2ncnc(Cl)c2[nH]1	inactive
N#Cc1c(-c2ccccc2)cc(-c2ccccc2)n(CCCCCC(=O)Nc2ccccc2N)c1=O	inactive
O=C1/C(=C/c2ccc(Cl)c(Cl)c2)CN(C(=O)C(Cl)Cl)C/C1=C\c1ccc(Cl)c(Cl)c1	active
